What growth inhibition was measured for each of the following?
- TEST_NAME: NCI Yeast Anticancer Drug Screen. Data for the mec2-1 strain (AID 157)
- REPORTED_CONDITIONS: S. cerevisiae mec2-1 strain, at 50.0 µM, active compounds read high
This is part of a sample that, as a whole, favours compounds with a hit. Of some 79,000 tested, about 15% had one in any assay.
Give your result in % as a bare value.

## Task Please report the recorded growth inhibition for COc1cc(-c2[nH]ccc2Cl)oc1C1=C2N=C3C=C2C(C(C)C)C1CCCCCCCC3 (stereo not given) .
## Result 83.6

## Task Please report the recorded growth inhibition for COc1ccc(/C=C\[N+](=O)[O-])cc1OC .
## Result 99.7

## Task Please report the recorded growth inhibition for CCC(CO)N=Cc1ccccc1O.CCC(CO)N=Cc1ccccc1O.[Ni] (stereo not given) .
## Result 1.3

## Task Please report the recorded growth inhibition for CCCCCCCCCCC(O)C1CCC(C(O)CCC(O)C2CCC(CCCCCCC[C@H](O)CC3=C[C@@H](C)OC3=O)O2)O1 (stereo not given in full) .
## Result 6.55

## Task Please report the recorded growth inhibition for CCCCCCCCCCCCCCCC[N+](C)(C)CCOS(C)(=O)=O .
## Result 90.4

Measured values drawn from PubChem BioAssay (NCI) for this set.
